Recorded values, source the supplement of paper PMC3334620.

Target: Hap1 (UniProt P0CE41)
Sequence (P0CE41 whole entry): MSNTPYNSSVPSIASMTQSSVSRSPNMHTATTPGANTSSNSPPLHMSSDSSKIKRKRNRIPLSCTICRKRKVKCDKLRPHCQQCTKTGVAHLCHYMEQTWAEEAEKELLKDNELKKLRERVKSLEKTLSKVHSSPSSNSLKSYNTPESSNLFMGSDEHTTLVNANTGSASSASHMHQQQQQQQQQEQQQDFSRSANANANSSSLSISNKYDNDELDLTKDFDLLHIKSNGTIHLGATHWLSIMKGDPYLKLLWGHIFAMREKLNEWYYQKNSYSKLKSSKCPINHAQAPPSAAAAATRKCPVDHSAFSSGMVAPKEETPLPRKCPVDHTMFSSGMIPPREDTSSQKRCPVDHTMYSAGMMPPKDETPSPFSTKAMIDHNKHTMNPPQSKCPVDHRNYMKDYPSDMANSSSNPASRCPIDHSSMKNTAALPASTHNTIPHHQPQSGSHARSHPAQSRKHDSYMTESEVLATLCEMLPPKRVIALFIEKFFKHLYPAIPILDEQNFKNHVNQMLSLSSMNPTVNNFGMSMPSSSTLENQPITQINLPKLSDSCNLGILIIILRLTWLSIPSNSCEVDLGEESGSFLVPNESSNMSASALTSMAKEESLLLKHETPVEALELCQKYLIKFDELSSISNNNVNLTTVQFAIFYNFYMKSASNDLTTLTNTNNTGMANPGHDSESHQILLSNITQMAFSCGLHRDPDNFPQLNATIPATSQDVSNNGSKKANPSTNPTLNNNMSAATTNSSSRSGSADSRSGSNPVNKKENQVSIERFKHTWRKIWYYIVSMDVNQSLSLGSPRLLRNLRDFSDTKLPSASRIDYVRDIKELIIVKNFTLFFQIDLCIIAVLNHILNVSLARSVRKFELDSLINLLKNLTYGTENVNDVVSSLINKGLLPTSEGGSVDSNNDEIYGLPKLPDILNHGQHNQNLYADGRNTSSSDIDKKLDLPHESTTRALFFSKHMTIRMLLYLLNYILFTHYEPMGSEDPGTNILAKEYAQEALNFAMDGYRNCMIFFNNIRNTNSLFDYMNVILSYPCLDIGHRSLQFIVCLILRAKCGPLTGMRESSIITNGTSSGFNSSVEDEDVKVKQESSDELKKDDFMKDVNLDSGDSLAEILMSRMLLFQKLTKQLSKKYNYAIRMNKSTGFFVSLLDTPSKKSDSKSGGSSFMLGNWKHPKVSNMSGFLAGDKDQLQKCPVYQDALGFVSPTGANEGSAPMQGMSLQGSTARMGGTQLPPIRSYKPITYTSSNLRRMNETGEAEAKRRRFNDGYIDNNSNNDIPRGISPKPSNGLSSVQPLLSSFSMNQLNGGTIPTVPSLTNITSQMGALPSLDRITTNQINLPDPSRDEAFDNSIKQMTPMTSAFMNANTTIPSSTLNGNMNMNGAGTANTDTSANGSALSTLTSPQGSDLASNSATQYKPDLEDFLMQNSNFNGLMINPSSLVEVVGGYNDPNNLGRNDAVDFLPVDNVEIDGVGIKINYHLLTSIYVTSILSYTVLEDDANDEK
Test: PBM E-score (8-mer binding enrichment) (E-score (-0.5 to 0.5)); higher = stronger / more preferred TF binding
Details: protein concentration: 200 nM; construct: GST-DNA-binding domain
In all, about 33,000 sequences were measured (“E-score (-0.5 to 0.5)”: median about -0.053, highest 2% from about 0.37 on). Many of the other results were omitted from the sample, so the highest values are more common in it than they were.
Decide by PBM E-score: equal to or exceeding 0.2 means MET, less means NOT MET.

Previously resolved entries follow.
ordered_residues=CATCGGTC group=MET
ordered_residues=ATCCGAAT group=MET
ordered_residues=GCCGAAAA group=MET
ordered_residues=CACCGAAG group=MET
ordered_residues=TGCTAGAA group="NOT MET"
ordered_residues=GATCGGAA group=MET
ordered_residues=ACGGGAAA group="NOT MET"
ordered_residues=ACCGCACG group="NOT MET"
ordered_residues=ACCGAACA group=MET
ordered_residues=TAGACACA group="NOT MET"

Asked: Tell me whether PBM E-score is at least 0.2 here: CAGCAGTA
Given back: NOT MET

Asked: Query ATCTAAGC next
Given back: NOT MET

Asked: # repeat for ACCAGTGA
Given back: NOT MET

Asked: Subsequent entry: AACGCCCC
Given back: NOT MET
